Data provenance: patent US9765105B2

test system: Actinobacillus pleuropneumoniae CVCC262; assay: in vitro susceptibility, MIC by mini broth dilution; format: cell-based; settings: strain CVCC262
OBSERVED PROPERTY: MIC values, Actinobacillus pleuropneumoniae CVCC262 (ug/mi)
# value in ug/mi; strip the unit string

As a guide, the following entries are already answered.
CCCN1C[C@H](C)[C@@H](O)[C@](C)(O)[C@@H](CC)OC(=O)[C@H](C)[C@@H](O[C@H]2C[C@@](C)(OC)[C@](O)(CN(C)CCO)[C@H](C)O2)[C@H](C)[C@@H](O[C@@H]2O[C@H](C)C[C@H](N(C)C)[C@H]2O)[C@](C)(O)C[C@H]1C [syzx-126]    4
CCCN1C[C@H](C)[C@@H](O)[C@](C)(O)[C@@H](CC)OC(=O)[C@H](C)[C@@H](O[C@H]2C[C@@](C)(OC)[C@](O)(CNCCCCO)[C@H](C)O2)[C@H](C)[C@@H](O[C@@H]2O[C@H](C)C[C@H](N(C)C)[C@H]2O)[C@](C)(O)C[C@H]1C [syzx-133]    1
CC[C@H]1OC(=O)[C@H](C)[C@@H](O[C@H]2C[C@@](C)(OC)[C@](O)(CNc3ccccc3F)[C@H](C)O2)[C@H](C)[C@@H](O[C@@H]2O[C@H](C)C[C@H](N(C)C)[C@H]2O)[C@](C)(O)C[C@@H](C)NC[C@H](C)[C@@H](O)[C@]1(C)O [syzx-95]    2
CCCN1C[C@H](C)[C@@H](O)[C@](C)(O)[C@@H](CC)OC(=O)[C@H](C)[C@@H](O[C@H]2C[C@@](C)(OC)[C@](O)(CNc3ccc(Cl)cc3C)[C@H](C)O2)[C@H](C)[C@@H](O[C@@H]2O[C@H](C)C[C@H](N(C)C)[C@H]2O)[C@](C)(O)C[C@H]1C [syzx-197]    0.5
CCCN1C[C@H](C)[C@@H](O)[C@](C)(O)[C@@H](CC)OC(=O)[C@H](C)[C@@H](O[C@H]2C[C@@](C)(OC)[C@](O)(CNCc3ccc(OC)cc3)[C@H](C)O2)[C@H](C)[C@@H](O[C@@H]2O[C@H](C)C[C@H](N(C)C)[C@H]2O)[C@](C)(O)C[C@H]1C [syzx-118]    0.25
CCCN1C[C@H](C)[C@@H](O)[C@](C)(O)[C@@H](CC)OC(=O)[C@H](C)[C@@H](O[C@H]2C[C@@](C)(OC)[C@](O)(CNCCc3ccc(S(N)(=O)=O)cc3)[C@H](C)O2)[C@H](C)[C@@H](O[C@@H]2O[C@H](C)C[C@H](N(C)C)[C@H]2O)[C@](C)(O)C[C@H]1C [syzx-161]    0.25

Please examine the following record next.
Task item: Actinobacillus pleuropneumoniae CVCC262 / MIC values, Actinobacillus pleuropneumoniae CVCC262 / CCC(NC[C@]1(O)[C@H](C)O[C@@H](O[C@H]2[C@H](C)[C@@H](O[C@@H]3O[C@H](C)C[C@H](N(C)C)[C@H]3O)[C@](C)(O)C[C@@H](C)NC[C@H](C)[C@@H](O)[C@](C)(O)[C@@H](CC)OC(=O)[C@@H]2C)C[C@@]1(C)OC)C(=O)O (stereo partly shown) [syzx-41] : value?
Reply: 1
